Molecular target: Fuc(a1-3)[GalNAc(b1-4)]GlcNAc6S
Test: glycan array binding signal (z-score within array); higher = stronger binding
Details: glycan notation: IUPAC condensed, linker removed
This is one part of a sample in which the strongest signals are shown more often than they occur.
Measured glycan array binding signal (z-score) values are reported for all entries that follow.
Number only, please.

Exercise: // query glycan array binding signal (z-score) value for entry BabA (Helicobacter pylori), O52269_HELPY (protein) AEDDGFYMSAGYQIGEAAQMVKNTKGIQELSDNYENLSNLLTRYSTLNTLIKLSADPSAVNAARENLGASAKNLIGDTKNSPAYQAVLLAINAAVGFWNVVGYVTQCGGNANGQKSTSSTTIFNNEPGYRSTSITCSLNGHMPGYYGPMSIENFKKLNEAYQILQTALKNGLPALKENNGTVNVTYSYTCSGEGNDNCSLQTTGVTNQNNGTKTETQTIDGKSVTTTISSKVVDSQ
Key: -0.664

Now for the binder whose glycan array binding signal (z-score) we want.
Exercise: Recorded glycan array binding signal (z-score) for FimA-N3 (Actinomyces oris) (protein) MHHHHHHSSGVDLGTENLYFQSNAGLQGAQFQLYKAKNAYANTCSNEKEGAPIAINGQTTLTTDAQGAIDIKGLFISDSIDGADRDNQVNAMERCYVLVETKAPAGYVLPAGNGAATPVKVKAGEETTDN , please?
Key: 4.08
